Every entry's value here was drawn from ChEMBL document CHEMBL1129669.

- Species: Cavia porcellus
- Assay summary: Percentage reversal of isolated guinea pig gall bladder contraction by the compound
- Assay type: functional
Quantity measured: Reversal (%)
Output spec: scalar in %, unitless text.

**Q:** Which Reversal value belongs to CC(C)N(C(=O)CN1C(=O)C(NC(=O)Nc2ccccc2)C(=O)N(c2ccccc2)c2ccccc21)c1ccc(O)cc1 (stereo unspecified) ?
**A:** 100

**Q:** Which Reversal value belongs to CC(C)N(C(=O)CN1C(=O)C(NC(=O)Nc2ccccc2)C(=O)N(c2ccccc2)c2ccccc21)c1ccc(F)cc1 (stereo unspecified) ?
**A:** 116

**Q:** Which Reversal value belongs to CC(C)N(C(=O)CN1C(=O)C(NC(=O)Nc2ccccc2)C(=O)N(c2ccccc2)c2ccccc21)c1ccc(N2CCOCC2)cc1 (stereo unspecified) ?
**A:** 123

**Q:** Which Reversal value belongs to CC(C)N(C(=O)CN1C(=O)C(NC(=O)Nc2ccccc2)C(=O)N(c2ccccc2)c2ccccc21)c1ccccc1 (stereo unspecified) ?
**A:** 117

**Q:** Which Reversal value belongs to CC(C)N(C(=O)CN1C(=O)C(NC(=O)Nc2ccccc2)C(=O)N(c2ccccc2)c2ccccc21)c1ccc(N(C)C)cc1.O=C(O)C(F)(F)F (stereo unspecified) ?
**A:** 100

**Q:** Which Reversal value belongs to COc1ccc(N(C(=O)CN2C(=O)C(NC(=O)Nc3ccccc3)C(=O)N(c3ccccc3)c3ccccc32)C(C)C)cc1 (stereo unspecified) ?
**A:** 107

----------
- Species on record: Cavia porcellus
- Assay summary: Percent contraction of the guinea pig gall bladder uM
- Format: functional
What Activity was measured for each of the following?
Output spec: scalar in %, unitless text.

**Q:** Which Activity value belongs to CC(C)N(C(=O)CN1C(=O)C(NC(=O)Nc2ccccc2)C(=O)N(c2ccccc2)c2ccccc21)c1ccc(N(C)C)cc1.O=C(O)C(F)(F)F (centres undefined) ?
**A:** 46

**Q:** Which Activity value belongs to COc1ccc(N(C(=O)CN2C(=O)C(NC(=O)Nc3ccccc3)C(=O)N(c3ccccc3)c3ccccc32)C(C)C)cc1 (centres undefined) ?
**A:** 82

**Q:** Which Activity value belongs to CC(C)N(C(=O)CN1C(=O)C(NC(=O)Nc2ccccc2)C(=O)N(c2ccccc2)c2ccccc21)c1ccc(N2CCOCC2)cc1 (centres undefined) ?
**A:** 74

**Q:** Which Activity value belongs to CC(C)N(C(=O)CN1C(=O)C(NC(=O)Nc2ccccc2)C(=O)N(c2ccccc2)c2ccccc21)c1ccc(F)cc1 (centres undefined) ?
**A:** 53

----------
- Target entity: Gastrin/cholecystokinin type B receptor (Homo sapiens)
- Sequence (P32239 whole entry): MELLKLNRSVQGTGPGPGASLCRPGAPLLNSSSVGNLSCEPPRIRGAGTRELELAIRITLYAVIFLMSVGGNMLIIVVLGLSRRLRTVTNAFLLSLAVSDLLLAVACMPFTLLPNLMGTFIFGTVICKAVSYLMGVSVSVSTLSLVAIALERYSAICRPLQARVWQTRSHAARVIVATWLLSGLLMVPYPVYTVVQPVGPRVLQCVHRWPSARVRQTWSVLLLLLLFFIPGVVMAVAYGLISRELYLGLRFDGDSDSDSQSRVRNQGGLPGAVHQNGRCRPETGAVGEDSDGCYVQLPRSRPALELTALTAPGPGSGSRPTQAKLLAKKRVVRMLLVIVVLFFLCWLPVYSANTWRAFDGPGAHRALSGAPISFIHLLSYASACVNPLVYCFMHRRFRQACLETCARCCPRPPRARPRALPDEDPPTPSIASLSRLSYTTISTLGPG
- Assay summary: Concentration required to displace [125I]Bolton-Hunter CCK-8 from human Cholecystokinin type B receptor expressed in CHO-K1 cells
What IC50 was measured for each of the following?
Output spec: scalar in nM, unitless text.

**Q:** Which IC50 value belongs to COc1ccc(N(C(=O)CN2C(=O)C(NC(=O)Nc3ccccc3)C(=O)N(c3ccccc3)c3ccccc32)C(C)C)cc1 (stereo unspecified) ?
**A:** 50.1

**Q:** Which IC50 value belongs to CC(C)N(C(=O)CN1C(=O)C(NC(=O)Nc2ccccc2)C(=O)N(c2ccccc2)c2ccccc21)c1ccc(O)cc1 (stereo unspecified) ?
**A:** 15.8

**Q:** Which IC50 value belongs to CC(C)N(C(=O)CN1C(=O)C(NC(=O)Nc2ccccc2)C(=O)N(c2ccccc2)c2ccccc21)c1ccc(N(C)C)cc1.O=C(O)C(F)(F)F (stereo unspecified) ?
**A:** 251

**Q:** Which IC50 value belongs to CC(C)N(C(=O)CN1C(=O)C(NC(=O)Nc2ccccc2)C(=O)N(c2ccccc2)c2ccccc21)c1ccc(F)cc1 (stereo unspecified) ?
**A:** 31.6

**Q:** Which IC50 value belongs to CC(C)N(C(=O)CN1C(=O)C(NC(=O)Nc2ccccc2)C(=O)N(c2ccccc2)c2ccccc21)c1ccc(N2CCOCC2)cc1 (stereo unspecified) ?
**A:** 158

**Q:** Which IC50 value belongs to CC(C)N(C(=O)CN1C(=O)C(NC(=O)Nc2ccccc2)C(=O)N(c2ccccc2)c2ccccc21)c1ccc(C(=O)O)cc1 (stereo unspecified) ?
**A:** 39.8

----------
What pKB was measured for each of the following?
- Species on record: Cavia porcellus
- Assay summary: Antagonist affinity (pKB) against contraction of guinea pig gall bladder measured at a dose 30 uM
- Format: functional
Enter the number alone.

**Q:** Which pKB value belongs to CN(C(=O)CN1C(=O)C(NC(=O)Nc2ccccc2)C(=O)N(c2ccccc2)c2ccccc21)c1ccccc1 (stereo not given) ?
**A:** 6.27

**Q:** Which pKB value belongs to O=C(O)CN(C(=O)CN1C(=O)C(NC(=O)Nc2ccccc2)C(=O)N(c2ccccc2)c2ccccc21)c1ccccc1 (stereo not given) ?
**A:** 6.33

**Q:** Which pKB value belongs to O=C(CN1C(=O)C(NC(=O)Nc2ccccc2)C(=O)N(c2ccccc2)c2ccccc21)Nc1ccccc1 (stereo not given) ?
**A:** 6.33

**Q:** Which pKB value belongs to NCCN(C(=O)CN1C(=O)C(NC(=O)Nc2ccccc2)C(=O)N(c2ccccc2)c2ccccc21)c1ccccc1 (stereo not given) ?
**A:** 5.88

**Q:** Which pKB value belongs to CC(C)N(C(=O)CN1C(=O)C(NC(=O)Nc2ccccc2)C(=O)N(c2ccccc2)c2ccccc21)c1ccc(C(=O)O)cc1 (stereo not given) ?
**A:** 6.14

----------
- Target entity: Cholecystokinin receptor type A (Homo sapiens, UniProt P32238)
- Sequence (P32238 whole entry): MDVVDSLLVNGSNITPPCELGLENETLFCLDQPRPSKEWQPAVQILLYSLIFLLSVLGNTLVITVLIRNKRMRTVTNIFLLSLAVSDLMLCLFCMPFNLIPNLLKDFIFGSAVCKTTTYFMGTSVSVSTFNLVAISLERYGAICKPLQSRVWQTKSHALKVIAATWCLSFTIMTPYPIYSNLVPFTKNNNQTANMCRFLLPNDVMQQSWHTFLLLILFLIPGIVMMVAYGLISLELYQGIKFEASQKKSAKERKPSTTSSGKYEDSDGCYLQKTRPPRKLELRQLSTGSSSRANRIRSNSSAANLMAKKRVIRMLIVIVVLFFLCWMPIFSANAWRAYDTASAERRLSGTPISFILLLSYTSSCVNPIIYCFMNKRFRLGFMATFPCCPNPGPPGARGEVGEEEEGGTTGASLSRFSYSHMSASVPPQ
- Assay summary: Concentration required to displace [125I]Bolton-Hunter CCK-8 from human Cholecystokinin type A receptor stably expressed in CHO-K1 cells
Quantity measured: IC50 (nM)
Output spec: scalar in nM, unitless text.

**Q:** // fetch Cholecystokinin receptor type A (Homo sapiens, UniProt P32238) IC50 for CC(C)N(C(=O)CN1C(=O)C(NC(=O)Nc2ccccc2)C(=O)N(c2ccccc2)c2ccccc21)c1ccc(F)cc1 (stereo not given)
**A:** 100

**Q:** // fetch Cholecystokinin receptor type A (Homo sapiens, UniProt P32238) IC50 for CC(C)N(C(=O)CN1C(=O)C(NC(=O)Nc2ccccc2)C(=O)N(c2ccccc2)c2ccccc21)c1ccc(N(C)C)cc1.O=C(O)C(F)(F)F (stereo not given)
**A:** 63.1

**Q:** // fetch Cholecystokinin receptor type A (Homo sapiens, UniProt P32238) IC50 for CC(C)N(C(=O)CN1C(=O)C(NC(=O)Nc2ccccc2)C(=O)N(c2ccccc2)c2ccccc21)c1ccc(C(=O)O)cc1 (stereo not given)
**A:** 2510

**Q:** // fetch Cholecystokinin receptor type A (Homo sapiens, UniProt P32238) IC50 for COc1ccc(N(C(=O)CN2C(=O)C(NC(=O)Nc3ccccc3)C(=O)N(c3ccccc3)c3ccccc32)C(C)C)cc1 (stereo not given)
**A:** 79.4

**Q:** // fetch Cholecystokinin receptor type A (Homo sapiens, UniProt P32238) IC50 for CC(C)N(C(=O)CN1C(=O)C(NC(=O)Nc2ccccc2)C(=O)N(c2ccccc2)c2ccccc21)c1ccc(O)cc1 (stereo not given)
**A:** 39.8
